- Measurement target: Sodium- and chloride-dependent GABA transporter 2 (Homo sapiens)
- Sequence (Q9NSD5 whole entry): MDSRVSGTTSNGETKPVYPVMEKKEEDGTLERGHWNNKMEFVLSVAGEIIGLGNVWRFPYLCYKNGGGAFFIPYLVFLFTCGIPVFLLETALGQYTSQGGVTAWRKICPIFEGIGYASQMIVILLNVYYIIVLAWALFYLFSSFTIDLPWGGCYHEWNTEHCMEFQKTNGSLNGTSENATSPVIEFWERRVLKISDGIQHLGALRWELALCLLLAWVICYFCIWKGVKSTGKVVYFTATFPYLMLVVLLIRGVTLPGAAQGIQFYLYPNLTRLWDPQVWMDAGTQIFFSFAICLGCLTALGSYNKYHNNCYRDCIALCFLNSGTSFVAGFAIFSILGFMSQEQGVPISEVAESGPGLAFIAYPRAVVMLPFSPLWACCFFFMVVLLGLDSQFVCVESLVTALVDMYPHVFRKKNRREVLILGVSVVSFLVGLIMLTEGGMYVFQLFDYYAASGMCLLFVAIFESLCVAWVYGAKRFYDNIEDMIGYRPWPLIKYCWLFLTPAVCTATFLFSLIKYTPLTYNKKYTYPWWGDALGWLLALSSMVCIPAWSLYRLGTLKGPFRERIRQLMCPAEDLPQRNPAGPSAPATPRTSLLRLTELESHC
- Assay protocol: Inhibition of human […] expressed in tsA201 cells assessed as inhibition of [3H]GABA uptake by liquid scintillation method
Measurement kind: pIC50
Entry type: numeric. Quantity: pIC50, the -log10 of concentration in molar units.

In: Give recorded pIC50 with Sodium- and chloride-dependent GABA transporter 2 (Homo sapiens) for the following compound: NCC(N)C(=O)O (stereo unspecified)
Out: 4.40
